These measurements were taken from patent US10167518B2.

- systemUnderTest: RAR beta (Homo sapiens)
- Sequence (P10826 1-455): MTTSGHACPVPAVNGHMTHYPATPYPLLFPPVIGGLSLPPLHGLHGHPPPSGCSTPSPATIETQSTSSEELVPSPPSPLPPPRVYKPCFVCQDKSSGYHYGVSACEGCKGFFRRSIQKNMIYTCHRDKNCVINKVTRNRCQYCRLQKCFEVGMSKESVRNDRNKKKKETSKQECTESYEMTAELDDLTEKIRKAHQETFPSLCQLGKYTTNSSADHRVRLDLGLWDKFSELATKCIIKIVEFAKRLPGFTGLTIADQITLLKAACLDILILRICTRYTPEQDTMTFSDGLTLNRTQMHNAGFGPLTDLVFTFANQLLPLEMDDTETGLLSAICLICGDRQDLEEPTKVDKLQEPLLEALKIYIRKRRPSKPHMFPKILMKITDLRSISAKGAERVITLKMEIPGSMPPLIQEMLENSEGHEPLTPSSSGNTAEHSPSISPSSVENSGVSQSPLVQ
- procedureSummary: SelectScreen Nuclear Profiling, agonist specificity for RAR beta
- Type: cell-based
RAR beta % max values by entry
quantityMeasured: RAR beta % max

compound=CC1(C)CC=C(C#Cc2ccccc2)c2cc(/C=C/c3ccc(C(=O)O)cc3)ccc21 endpointvalue=0%
compound=CC1(C)CC=C(c2cnc3ccccc3c2)c2cc(C(=O)Nc3ccc(C(=O)O)cc3)ccc21 endpointvalue=0%
compound=CC1(C)CCC(C)(C)c2cc(NC(=O)c3ccc(C(=O)O)cc3)ccc21 endpointvalue=114.9%
compound=CC1(C)CCC(C)(C)c2cc(C(=O)Nc3ccc(C(=O)O)cc3)ccc21 endpointvalue=78.24%
compound=COc1ccc(-c2ccc3cc(C(=O)O)ccc3c2)cc1C12CC3CC(CC(C3)C1)C2 endpointvalue=69.36%
compound=CC1(C)C(=O)C(C)(C)c2cc(C(=O)Nc3ccc(C(=O)O)cc3)ccc21 endpointvalue=6%
compound=CC1(C)CCSc2ccc(C#Cc3ccc(C(=O)O)cn3)cc21 endpointvalue=71.88%
compound="CC1=C(/C=C/C(C)=C/C=C/C(C)=C/C(=O)O)C(C)(C)CCC1 [Tretinoin, all-trans retinoic acid]" endpointvalue=92.77%
